Experiment: xn = mol fraction of the nth substance listed
Conditions: 318.15 K; 101 kPa; Liquid; x1 = 0.85
Property Measured: mass density (kg/m3)

Compound	Unit Text	mass density
CCCCCC(=O)OCC [ethyl hexanoate] + CCO	kg/m3	842.07
CCOC(=O)Cc1ccccc1 [ethyl phenylacetate] + CCO	kg/m3	993.53
CCCC(=O)OCCC(C)C [3-methylbutyl butanoate] + CCO	kg/m3	835.96
CCCCCCCC(=O)OCC [ethyl octanoate] + CCO	kg/m3	840.47
CCOC(=O)c1ccccc1 [ethyl benzoate] + CCO	kg/m3	1005.64

---

Test: xn = mol fraction of the nth substance listed
Details: 288.15 K; 100.5 kPa; Liquid; x1 = 0.8
Property Measured: viscosity (mPa·s)

P: CCCC(=O)OCCC(C)C [3-methylbutyl butanoate] + CCO
Q: CCOC(=O)c1ccccc1 [ethyl benzoate] + CCO
Ask | Between the entries labeled P and Q , whose measured viscosity is lower? Response format: the label of the selected entry.
Reply | P
(P: 1.253 mPa·s, Q: 2.099 mPa·s)

A: CC(=O)OCCC(C)C [3-methylbutyl ethanoate] + CCO
B: CCCCCCCC(=O)OCC [ethyl octanoate] + CCO
Ask | Between the entries labeled A and B , whose measured viscosity is lower? Response format: the label of the selected entry.
Reply | A

---

Test: xn = mol fraction of the nth substance listed
Details: 288.15 K; 101 kPa; Liquid; x1 = 0.45
Property Measured: mass density (kg/m3)

Molecule	Property Measured	Value Measured
CCOC(=O)Cc1ccccc1 [ethyl phenylacetate] + CCO	mass density	963.02
CCCCCC(=O)OCC [ethyl hexanoate] + CCO	mass density	850.15
CCOC(=O)c1ccccc1 [ethyl benzoate] + CCO	mass density	967.71
CCCCCCCC(=O)OCC [ethyl octanoate] + CCO	mass density	849.59
CCCC(=O)OCCC(C)C [3-methylbutyl butanoate] + CCO	mass density	846.14

---

Assay: xn = mol fraction of the nth substance listed
Settings: 298.15 K; 100.5 kPa; Liquid; x1 = 0.1
Property Measured: viscosity (mPa·s)

Molecule	Property Measured	Value Measured
CCOC(=O)Cc1ccccc1 [ethyl phenylacetate] + CCO	viscosity	1.151
CCCCCCCC(=O)OCC [ethyl octanoate] + CCO	viscosity	1.081
CCCC(=O)OCCC(C)C [3-methylbutyl butanoate] + CCO	viscosity	1.025
CCOC(=O)c1ccccc1 [ethyl benzoate] + CCO	viscosity	1.123
CC(=O)OCCC(C)C [3-methylbutyl ethanoate] + CCO	viscosity	0.946
CCCCCC(=O)OCC [ethyl hexanoate] + CCO	viscosity	0.982

---

Assay: xn = mol fraction of the nth substance listed
Settings: 318.15 K; 101 kPa; Liquid; x1 = 0.35
Property Measured: mass density (kg/m3)

Compound	mass density, kg/m3
CCCC(=O)OCCC(C)C [3-methylbutyl butanoate] + CCO	811.78
CCOC(=O)Cc1ccccc1 [ethyl phenylacetate] + CCO	911.82
CCOC(=O)c1ccccc1 [ethyl benzoate] + CCO	914.45
CCCCCCCC(=O)OCC [ethyl octanoate] + CCO	815.96
CCCCCC(=O)OCC [ethyl hexanoate] + CCO	814.29

---

Assay: xn = mol fraction of the nth substance listed
Settings: 288.15 K; 101 kPa; Liquid; x1 = 0.15
Property Measured: mass density (kg/m3)

Molecule	mass density [kg/m3]
CCCCCC(=O)OCC [ethyl hexanoate] + CCO	820.54
CCOC(=O)Cc1ccccc1 [ethyl phenylacetate] + CCO	874.72
CCOC(=O)c1ccccc1 [ethyl benzoate] + CCO	874.07
CCCCCCCC(=O)OCC [ethyl octanoate] + CCO	822.04
CCCC(=O)OCCC(C)C [3-methylbutyl butanoate] + CCO	819.51
